These entries and their values trace back to the supplement of paper PMC11908140.

B1: library; numbered along this chain (parent)
chain: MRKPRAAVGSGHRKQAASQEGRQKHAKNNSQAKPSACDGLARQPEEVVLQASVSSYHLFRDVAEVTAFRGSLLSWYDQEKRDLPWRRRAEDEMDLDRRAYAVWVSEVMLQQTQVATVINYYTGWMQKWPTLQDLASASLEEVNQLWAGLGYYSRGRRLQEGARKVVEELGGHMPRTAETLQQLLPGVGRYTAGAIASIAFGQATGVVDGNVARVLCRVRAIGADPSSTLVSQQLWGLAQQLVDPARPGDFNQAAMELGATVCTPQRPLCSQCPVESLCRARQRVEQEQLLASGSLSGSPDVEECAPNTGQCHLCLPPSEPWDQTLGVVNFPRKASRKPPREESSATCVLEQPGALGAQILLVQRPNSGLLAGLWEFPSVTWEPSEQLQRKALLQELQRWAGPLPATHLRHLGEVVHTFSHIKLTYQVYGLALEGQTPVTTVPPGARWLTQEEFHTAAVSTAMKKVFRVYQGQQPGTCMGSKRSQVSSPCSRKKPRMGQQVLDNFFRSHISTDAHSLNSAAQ

variants of: B1; assay: 8OG:A repair function score (normalized; synonymous = 0, nonsense = -1) (normalized log-likelihood score); higher = more repair activity (WT-like); conditions: with 8OG:A DNA repair reporter (GFP) in HEK-293 MUTYH KO cells;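 also: cells sorted at 72 h after reporter transfection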
Documented 8OG:A repair function score across a set of variants
I'd appreciate a reply containing only the number, no unit.

V165L : -0.0671
Q286P : -0.093

Alright, here's another variant for you.
8OG:A repair function score recorded for this variant, R364Q , is -0.529
